SYSTEM: G-protein coupled receptor homolog US28 (Human cytomegalovirus (strain AD169) (HHV-5) (Human herpesvirus 5), UniProt P69332)
PROTOCOL SUMMARY: Inhibitory concentration against chemokine receptor US28 expressed in COS-7 cells using [125I]-CCL5
RESULT TYPE: pIC50
Scale: negative log10 of molar concentration, which is what pIC50 denotes.

Completed entries (count: 4):
COMPOUND: N#CC(CCCN1CCC(O)(c2ccc(Cl)c(Cl)c2)CC1)(c1ccccc1)c1ccccc1
OBSERVED RESULT: 4.42

COMPOUND: OC1(c2ccc(Cl)cc2)CCN(CCCOc2ccccc2)CC1
OBSERVED RESULT: 4.21

COMPOUND: OC1(c2ccc(Cl)cc2)CCN(CCCC(c2ccccc2)c2ccc(Cl)cc2)CC1 (stereo not given)
OBSERVED RESULT: 4.77

COMPOUND: COc1ccc(C2(O)CCN(CCCC(C#N)(c3ccccc3)c3ccccc3)CC2)cc1
OBSERVED RESULT: 4.14

Consider the additional compound presented here.
**Query** Entry OC1(c2ccc(Cl)cc2)CCN(CCCC(c2ccccc2)c2ccc(Cl)c(Cl)c2)CC1 (stereo not given) has what pIC50?
**Result** 4.80

----------
SYSTEM: G-protein coupled receptor homolog US28 (Human cytomegalovirus (strain AD169) (HHV-5) (Human herpesvirus 5))
PROTOCOL SUMMARY: Inhibitory concentration against chemokine receptor US28 expressed in COS-7 cells using [125I]-CCL5
The entries below are paired with their reported IC50.
Your answer is read as µM, so omit the unit and give the number.

Examples from the recorded data:
COMPOUND: Cc1ccc(C(CCCN2CCC(O)(c3ccc(Cl)cc3)CC2)c2ccccc2)cc1 (stereo not given)
IC50, µM: 30.9
//
COMPOUND: N#CC(CCCN1CCC(O)(c2ccccc2)CC1)(c1ccccc1)c1ccccc1
IC50, µM: 35.5
//
COMPOUND: N#CC(CCCN1CCC(O)(c2ccc(Br)cc2)CC1)(c1ccccc1)c1ccccc1
IC50, µM: 19.5
//
COMPOUND: OC1(c2ccc(Cl)cc2)CCN(CCCCc2ccccc2)CC1
IC50, µM: 14.8

**Query** Report IC50 for N#CC(CCCN1CCC(O)(Cc2ccccc2)CC1)(c1ccccc1)c1ccccc1 please.
**Result** 63.1

----------
SYSTEM: G-protein coupled receptor homolog US28 (Human cytomegalovirus (strain AD169) (HHV-5) (Human herpesvirus 5))
PROTOCOL SUMMARY: Effective concentration against US28-mediated inositol phosphate production in COS-7 cells
pEC50: −log10 of the molar value.
RESULT TYPE: pEC50

Completed entries (count: 8):
MOLECULE: OC(CCCN1CCC(O)(c2ccc(Cl)cc2)CC1)c1ccccc1 (stereo not given)
pEC50: < 4.00
//
MOLECULE: N#CC(CCCN1CCC(c2ccc(Cl)cc2)CC1)(c1ccccc1)c1ccccc1
pEC50: 4.86
//
MOLECULE: N#CC(CCCN1CCC(O)(c2ccc(Cl)cc2)CC1)(c1ccccc1)c1ccccc1
pEC50: 5.49
//
MOLECULE: C[N+]1(CCCC(C#N)(c2ccccc2)c2ccccc2)CCC(O)(c2ccc(Cl)cc2)CC1 (stereo not given)
pEC50: < 4.00
//
MOLECULE: N#CC(CCCN1CCC(C(=O)O)CC1)(c1ccccc1)c1ccccc1
pEC50: < 4.00
//
MOLECULE: COc1ccc(C2(O)CCN(CCCC(C#N)(c3ccccc3)c3ccccc3)CC2)cc1
pEC50: 4.54
//
MOLECULE: N#CC(CCCN1CCC(=C(c2ccccc2)c2ccccc2)CC1)(c1ccccc1)c1ccccc1
pEC50: < 4.00
//
MOLECULE: Cc1ccc(C(CCCN2CCC(O)(c3ccc(Cl)cc3)CC2)c2ccccc2)cc1 (stereo not given)
pEC50: 4.94

**Query** # get_value(readout='pEC50', item= N#CC(CCCN1CCN(c2ccc(Cl)cc2)CC1)(c1ccccc1)c1ccccc1 )
**Result** < 4.00

**Query** Quick one: OC1(c2ccc(Cl)cc2)CCN(CCCC(c2ccc(Cl)cc2)c2ccc(-c3ccccc3)cc2)CC1 (stereo not given)
**Result** < 4.00

**Query** Now this one: N#CC1(c2ccccc2)CCN(CCCC(C#N)(c2ccccc2)c2ccccc2)CC1
**Result** < 4.00

----------
SYSTEM: G-protein coupled receptor homolog US28 (Human cytomegalovirus (strain AD169) (HHV-5) (Human herpesvirus 5), UniProt P69332)
Sequence (P69332 whole entry): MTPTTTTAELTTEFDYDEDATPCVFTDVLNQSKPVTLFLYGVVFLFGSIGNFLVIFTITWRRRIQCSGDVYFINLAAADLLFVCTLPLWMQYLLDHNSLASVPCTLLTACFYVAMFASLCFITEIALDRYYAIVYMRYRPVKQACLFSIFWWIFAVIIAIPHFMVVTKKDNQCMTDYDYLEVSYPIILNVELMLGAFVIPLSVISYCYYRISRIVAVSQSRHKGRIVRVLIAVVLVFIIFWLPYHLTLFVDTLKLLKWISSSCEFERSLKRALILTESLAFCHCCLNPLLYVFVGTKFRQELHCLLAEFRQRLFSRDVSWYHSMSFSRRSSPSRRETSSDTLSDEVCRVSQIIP
PROTOCOL SUMMARY: Inhibitory concentration against chemokine receptor US28 expressed in COS-7 cells using [125I]-CCL5
Reported values of IC50 for individual entries
The response must be a number in µM with no trailing unit.

COMPOUND: OC1(c2ccc(Cl)cc2)CCN(CCCC(c2ccccc2)c2ccccc2)CC1
IC50 / µM: 6.5
//
COMPOUND: COc1ccc(C(CCCN2CCC(O)(c3ccc(Cl)cc3)CC2)c2ccccc2)cc1 (configuration not stated)
IC50 / µM: 15.5
//
COMPOUND: N#CC(CCCN1CCC(O)(c2ccc(Cl)c(C(F)(F)F)c2)CC1)(c1ccccc1)c1ccccc1
IC50 / µM: 45.7
//
COMPOUND: Cc1cccc(C(CCCN2CCC(O)(c3ccc(Cl)cc3)CC2)c2ccccc2)c1 (configuration not stated)
IC50 / µM: 11.5

**Query** Any idea what IC50 was measured for Cc1ccc(C2(O)CCN(CCCC(C#N)(c3ccccc3)c3ccccc3)CC2)cc1 ?
**Result** 60.3

**Query** Try this compound too: OC1(c2ccc(Cl)cc2)CCN(CCCC(c2ccc(Cl)cc2)c2ccc(Cl)cc2)CC1
**Result** 17.4

**Query** Here is the next compound: N#CC(CCCN1CCC(O)(c2ccc(Cl)cc2)CC1)(c1ccccc1)c1ccccc1 [BERLEX COMPOUND]
**Result** 9.3

**Query** Follow-up item: CCOC(=O)C1CCN(CCCC(C#N)(c2ccccc2)c2ccccc2)CC1
**Result** 34.7

**Query** # repeat for Cc1ccccc1C(CCCN1CCC(O)(c2ccc(Cl)cc2)CC1)c1ccccc1 (configuration not stated)
**Result** 5.5

----------
SYSTEM: G-protein coupled receptor homolog US28 (Human cytomegalovirus (strain AD169) (HHV-5) (Human herpesvirus 5), UniProt P69332)
PROTOCOL SUMMARY: Effective concentration against US28-mediated inositol phosphate production in COS-7 cells
pEC50: −log10 of the molar value.
Listed below: pEC50 values for each entry.

COMPOUND: Cc1ccccc1C(CCCN1CCC(O)(c2ccc(Cl)cc2)CC1)c1ccccc1 (centres undefined)
OBSERVED RESULT: 5.01

Could you now consider this next compound?
**Query** Query (compound): N#CC(CCCN1CCC(O)CC1)(c1ccccc1)c1ccccc1 ; field requested: pEC50
**Result** < 4.00

----------
SYSTEM: G-protein coupled receptor homolog US28 (Human cytomegalovirus (strain AD169) (HHV-5) (Human herpesvirus 5), UniProt P69332)
Sequence (P69332 whole entry): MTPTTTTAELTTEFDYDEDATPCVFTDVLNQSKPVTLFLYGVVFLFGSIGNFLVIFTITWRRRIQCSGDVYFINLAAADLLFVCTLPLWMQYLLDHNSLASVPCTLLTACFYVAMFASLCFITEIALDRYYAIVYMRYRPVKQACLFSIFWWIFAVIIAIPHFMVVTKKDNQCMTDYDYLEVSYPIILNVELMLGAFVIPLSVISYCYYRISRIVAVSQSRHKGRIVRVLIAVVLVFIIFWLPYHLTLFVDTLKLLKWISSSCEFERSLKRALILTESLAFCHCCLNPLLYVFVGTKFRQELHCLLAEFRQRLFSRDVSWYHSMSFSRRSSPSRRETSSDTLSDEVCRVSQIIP
PROTOCOL SUMMARY: Inhibitory concentration against chemokine receptor US28 expressed in COS-7 cells using [125I]-CCL5
RESULT TYPE: IC50

// below: answered molecules
STRUCTURE SMILES: N#CC(CCCN1CCC(C(N)=O)CC1)(c1ccccc1)c1ccccc1
IC50: > 100 µM

STRUCTURE SMILES: N#CC(CCCN1CCC(O)CC1)(c1ccccc1)c1ccccc1
IC50: > 100 µM

Next molecule, please.
**Query** // returns reported IC50 for input N#CC1(c2ccccc2)CCN(CCCC(C#N)(c2ccccc2)c2ccccc2)CC1
**Result** > 100 µM

These data points were gathered from ChEMBL document CHEMBL1141116.
